Source: ChEMBL document CHEMBL2029237

# pIC50 per record follows
- study_target: Melanin-concentrating hormone receptor 1 (Homo sapiens)
- Sequence (Q99705 whole entry): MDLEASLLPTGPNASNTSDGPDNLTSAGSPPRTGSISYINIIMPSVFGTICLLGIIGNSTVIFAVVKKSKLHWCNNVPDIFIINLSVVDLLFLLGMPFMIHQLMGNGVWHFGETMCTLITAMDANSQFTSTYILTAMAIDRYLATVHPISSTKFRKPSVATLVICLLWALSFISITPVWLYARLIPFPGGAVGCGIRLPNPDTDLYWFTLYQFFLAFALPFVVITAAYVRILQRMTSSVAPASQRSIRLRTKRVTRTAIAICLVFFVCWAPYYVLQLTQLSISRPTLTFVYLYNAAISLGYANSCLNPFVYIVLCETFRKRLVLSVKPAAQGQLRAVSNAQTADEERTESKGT
- assay_notes: Antagonist activity at human MCHR1 expressed in CHO cells assessed as inhibition of MCH-induced [3H]arachidonic acid release […] by liquid scintillation counting
- Assay type: functional, cell-based
- test_parameters: in the assay text read “45 mins” for “16 hrs”
pIC50: −log10 of the molar value.

substance_smiles | pIC50
O=C(Nc1cc2ncc(CN3CCCC3)cc2cc1F)c1ccc(-c2ccc(F)cc2)cc1 | 8.08
O=C(Nc1ccc2c(c1)CCC(CN1CCCC1)=C2)c1ccc(-c2ccc(F)cc2)cc1 | 7.77
Cc1c(NC(=O)c2ccc(-c3ccccc3)cc2)ccc2cc(CN3CCCC3)cnc12 | 8.15
Cc1ccc(-c2ccc(C(=O)Nc3ccc4cc(CN5CCCC5)cnc4c3C)cc2)cc1 | 7.96
Cc1c(NC(=O)c2ccc(-c3ccc(Cl)cc3)cc2)ccc2cc(CN3CCCC3)cnc12 | 8.12
